system: excised human nerve tissue; assay: Phage display selection on excised human nerve tissue (Nerve2, Nerve3), NextGen sequence counts; assay type: binding; conditions: unique sequence count (relative enrichment); Nerve3 only
assayReadout: Count
Answer with a number only.

IN: Query (substance): 431 (QTPWQVPGYNMLNS) [compound 431] ; field requested: Count
OUT: 99

IN: Try this substance too: 414 (QGSSVATSSVLTML) [compound 414]
OUT: 123

IN: Another substance: 357 (RIPSVGPYGVVKTF) [compound 357]
OUT: 391

IN: And 434 (LDQWHTPNYVVRKS) [compound 434] ?
OUT: 92

IN: Repeat with 352 (QMPWEVPYYVVKRS) [compound 352]
OUT: 548

IN: // query: 425 (QIPTVEPYYEGKKS) [compound 425]
OUT: 105

IN: Another substance to check: 448 (LFPKYAPHESVKMS) [compound 448]
OUT: 78

IN: Now the same for 405 (HVPWAGSSDVLKVT) [compound 405]
OUT: 160

IN: And then 408 (WLHWEQPYWTVKKS) [compound 408] , what is it?
OUT: 143

IN: Next substance: 398 (QDPSVDPYYVDRSS) [compound 398]
OUT: 181

IN: Next up: 391 (TFQYEQPNLVVKNA) [compound 391]
OUT: 207

IN: # repeat for 351 (ELPWQKRKDVMKYP) [compound 351]
OUT: 638

IN: Consider next the substance 417 (DLFVEEPYLGVIKF) [compound 417] in the same way.
OUT: 117
